# TGT: c-Met (phospho-c-Met) in HT29 cells (Homo sapiens, UniProt P08581)
# Construct: endogenous in cells; host or cells: HT29, A549 (HGF-stimulated), GTL-16
# Sequence (P08581 25-1390): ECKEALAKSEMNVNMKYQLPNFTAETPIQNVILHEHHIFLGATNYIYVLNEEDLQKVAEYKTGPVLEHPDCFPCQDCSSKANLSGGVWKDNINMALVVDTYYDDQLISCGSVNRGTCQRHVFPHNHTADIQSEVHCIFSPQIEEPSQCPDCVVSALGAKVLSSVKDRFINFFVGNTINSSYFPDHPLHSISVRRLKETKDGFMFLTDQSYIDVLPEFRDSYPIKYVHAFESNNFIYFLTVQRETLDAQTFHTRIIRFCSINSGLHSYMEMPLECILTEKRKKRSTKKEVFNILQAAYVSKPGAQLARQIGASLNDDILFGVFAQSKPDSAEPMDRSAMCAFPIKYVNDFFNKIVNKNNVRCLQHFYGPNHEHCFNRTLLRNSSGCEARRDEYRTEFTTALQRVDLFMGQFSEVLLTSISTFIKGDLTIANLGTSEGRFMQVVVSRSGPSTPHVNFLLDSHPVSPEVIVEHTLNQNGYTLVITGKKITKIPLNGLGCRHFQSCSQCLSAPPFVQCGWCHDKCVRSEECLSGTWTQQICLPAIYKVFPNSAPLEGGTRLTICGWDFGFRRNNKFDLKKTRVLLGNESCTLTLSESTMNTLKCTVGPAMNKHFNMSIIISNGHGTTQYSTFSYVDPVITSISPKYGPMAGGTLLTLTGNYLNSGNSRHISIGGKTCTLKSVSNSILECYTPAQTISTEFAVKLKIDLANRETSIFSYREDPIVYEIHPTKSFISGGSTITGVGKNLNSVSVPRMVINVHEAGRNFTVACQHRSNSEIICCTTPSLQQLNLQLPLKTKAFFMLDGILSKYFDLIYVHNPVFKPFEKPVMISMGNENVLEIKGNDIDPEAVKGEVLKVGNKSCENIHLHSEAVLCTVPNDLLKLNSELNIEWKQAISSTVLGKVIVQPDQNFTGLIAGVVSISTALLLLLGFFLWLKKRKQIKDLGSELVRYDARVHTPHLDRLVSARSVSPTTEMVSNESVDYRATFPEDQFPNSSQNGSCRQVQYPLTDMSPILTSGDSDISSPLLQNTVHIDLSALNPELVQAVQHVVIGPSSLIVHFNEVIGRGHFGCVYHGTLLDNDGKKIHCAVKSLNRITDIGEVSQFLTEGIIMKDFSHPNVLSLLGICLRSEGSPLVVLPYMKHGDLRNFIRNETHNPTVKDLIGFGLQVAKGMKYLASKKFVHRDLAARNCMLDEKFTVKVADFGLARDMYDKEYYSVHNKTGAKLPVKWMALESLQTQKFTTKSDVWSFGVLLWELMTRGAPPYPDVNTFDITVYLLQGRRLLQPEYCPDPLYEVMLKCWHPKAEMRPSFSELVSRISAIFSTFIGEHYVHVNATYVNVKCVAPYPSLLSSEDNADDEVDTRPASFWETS
# EXPERIMENT NOTES: c-Met Cellular Activity/Autophosphorylation Assay, HT29 cells
# Assay type: cell-based
# RUN CONDITIONS: HT-29, 3 μM compound, read-out: c-Met autophosphorylation inhibition score, HT29 Cells (3 μM)
MEASUREMENT NAME: inhibition at 3 µM

Worked cases, inhibition at 3 µM given:
CN1CCN(c2ccc(-c3cnc4c(c3)N(Cc3cc(F)ccc3F)CCN4)cn2)CC1 [Example 69]; 0 to 25%
CC(C)(C)OC(=O)NCC#Cc1cnc2c(c1)N(Cc1cc(Cl)ccc1Cl)CCN2 [Example 168]; 26 to 50%
O=C(O)c1ccc(-c2cnc3c(c2)N(Cc2cc(F)ccc2F)CCN3)cn1 [Example 72]; 26 to 50%

The value of inhibition at 3 µM measured for the compound Nc1ccc(-c2cnc3c(c2)N(Cc2c(F)ccc(F)c2Cl)CCN3)cn1 [Example 184] turned out to be 76 to 100%
